Can you tell me OD450 for the items I'm about to list?
- target_of_assay: T1, human MSLN-FL-his protein (human, UniProt Q13421 296-580)
- T1 construct: Made in HEK293E cells, purified on nickel column; it is put last here; also called human MSLN full-length protein; hMSLN-FL-his; not shown: His tag
- assay: ELISA on coated antigen, antibody 10 nM
Answers are plain numbers, in OD.

S009-F8-5.15 (antibody, human IgG1, kappa, V domains shown, Human-murine chimeric antibody, human IgG1 heavy and kappa light constant regions) VH: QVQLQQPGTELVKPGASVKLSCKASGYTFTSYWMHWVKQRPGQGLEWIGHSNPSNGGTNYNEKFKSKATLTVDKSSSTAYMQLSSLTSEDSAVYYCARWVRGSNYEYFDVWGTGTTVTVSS VL: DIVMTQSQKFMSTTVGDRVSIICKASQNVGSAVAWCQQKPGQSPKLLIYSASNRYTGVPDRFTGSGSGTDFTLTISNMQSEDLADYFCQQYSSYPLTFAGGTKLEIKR
2.75

Continue with the binder presented below.
Given S009-F8-15.19 (antibody, human IgG1, kappa, V domains shown, Human-murine chimeric antibody, human IgG1 heavy and kappa light constant regions) VH: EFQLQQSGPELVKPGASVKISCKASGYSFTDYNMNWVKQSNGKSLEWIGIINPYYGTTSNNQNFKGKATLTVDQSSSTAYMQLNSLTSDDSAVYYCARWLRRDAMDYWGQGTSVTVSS VL: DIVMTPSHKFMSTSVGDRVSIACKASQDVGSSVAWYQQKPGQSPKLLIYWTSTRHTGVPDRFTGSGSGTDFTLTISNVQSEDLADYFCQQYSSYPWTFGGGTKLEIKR , state its recorded OD450.
2.47
